B1: PPFIA4 (parent)
chain: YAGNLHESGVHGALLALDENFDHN

variants of: B1; test: protein stability index of a GFP-peptide fusion (GPS, HEK-293T) (PSI 1-6); higher = more stable; conditions: c terminus: a fixed tail appended;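 also: lentivirally expressed fusions sorted by FACS into six bins by GFP to DsRed ratio, PSI derived from sequencing read proportions per bin multiplied by bin number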

{"SEQUENCE VARIANT": "F21Q", "protein stability index": 3.08}
{"SEQUENCE VARIANT": "E7G", "protein stability index": 2}
{"SEQUENCE VARIANT": "N20E", "protein stability index": 3.07}
{"SEQUENCE VARIANT": "E19V", "protein stability index": 2}
